Examples of compounds with documented EC50 follow.
- systemTested: AMPK
- experiment: AMPK activation, enzyme-linked immunosorbent assay
- Type: biochemical
- setupConditions: Table 14, compounds of Table 7

// solved cases for EC50 follow
INSERT INTO assay_data (compound, result) VALUES
  ('N#Cc1ccc(CN2CCC(NC(=O)c3ccc(C(=O)N4CCC(C(=O)c5ccc(N6CCCC6)cc5)CC4)nc3)CC2)cc1F', '< 1000 nM'),
  ('Cc1nc2cc(OC3CCN(C(=O)c4ccc(C(=O)Nc5ccc(Oc6ccc(C#N)cc6)nc5)cn4)CC3)ccc2s1', '< 1000 nM');

Next:
Check the records and state EC50 for COc1ccc(C(=O)C2CCN(C(=O)c3ccc(C(=O)NC4CCN(Cc5cccc(OC)c5)C[C@H]4F)cn3)CC2)cc1 (stereo partly drawn)
< 1000 nM

Cited source for all entries: patent US9409884B2
